- METHOD_DESCRIPTION: NCI Yeast Anticancer Drug Screen. Data for the mlh1 strain (AID 171);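 further: 0% = growth of vehicle-treated control cultures of the same strain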
- APPLIED_CONDITIONS: S. cerevisiae mlh1 strain growth inhibition; at 1.2 µM; active compounds read high
The panel holds about 79,000 compounds, 15% with a hit somewhere; the sample as a whole holds those more often.
ASSAY_READOUT: growth inhibition (%)
Give bare numbers, in %.

COMPOUND | ASSAY_READOUT | OBSERVED_VALUE
CC(=O)N1C=Cc2c(c(C)c3c([nH]c4ccccc43)c2C)C1 | growth inhibition | 31
O=C1/C(=C/c2ccc(Cl)c(Cl)c2)CNC/C1=C\c1ccc(Cl)c(Cl)c1 | growth inhibition | 5
COc1cc([N+](=O)[O-])c2ncccc2c1Br | growth inhibition | -10
S=C1N(c2ccc(Cl)cc2)C2=C(N=Nc3ccccc3)C(=Nc3ccccc3S2)N1c1ccccn1 | growth inhibition | 9
CC(C)OP(=O)(OC(C)C)/C(Cl)=N/Nc1ccc([N+](=O)[O-])cc1 | growth inhibition | 13
CCC(C)(C)c1ccc(Oc2ccccc2)c(N)c1 | growth inhibition | -30

Report growth inhibition for each item below.
1. CC(C)(C)c1ccc2c(c1)C(=O)c1ccccc1C2=O
2. Nc1ccc(/C=C/c2ccc3cccnc3c2)cc1
3. CCCCCCCCCCCCCCCCCCN(C)C(COC)COP(=O)([O-])OCC[N+](C)(C)C (stereo unspecified)
4. O=C1C=CC(=Nc2cccc3c2-c2ccccc2C3=O)O1
5. NC(=S)N/N=C1\c2ccccc2CCC1CCC1(O)CCc2ccccc2C1=O (stereo unspecified)

1: -15; 2: -1; 3: -34; 4: 7; 5: 14

###

- METHOD_DESCRIPTION: NCI Yeast Anticancer Drug Screen. Data for the cln2 rad14 strain (AID 165);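 further: 0% = growth equal to vehicle treated cultures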
- APPLIED_CONDITIONS: S. cerevisiae cln2 rad14 strain, at 50.0 µM (retest, dose inferred, filed as 5.0), active compounds read high
- Experimental: Growth inhibition of yeast strains with defined genetic alterations is measured as a screen for potential anti-cancer activity. Selected strains with alterations in DNA damage repair or cell cycle control were exposed to compounds and growth inhibition was measured relative to vehicle treated controls. The strain used in this assay is cln2 rad14
The panel holds about 79,000 compounds, 15% with a hit somewhere; the sample as a whole holds those more often.
Please mark class 1 if the recorded growth inhibition is equal to or greater than 70%, and class 0 if it falls below.

Solved cases below.
COMPOUND | ASSIGNED_CLASS
O=c1c2ccccc2nc(-c2cccc([N+](=O)[O-])c2)n1O | class 1
Fc1ccc(Nc2ccc3ccccc3c2)cc1 | class 0
NC(CCCCCCCCCCCCC(N)C(=O)c1ccccc1)C(=O)c1ccccc1 (stereo not drawn) | class 1
N#C/C(=C\NC(=S)Nc1ccc(S(N)(=O)=O)cc1)C(=O)c1ccc2ccccc2c1 | class 1
CO[C@@]1([C@@H](Cl)c2ccccc2)C(=O)N(C)/C(=C\c2ccccc2)C(=O)N1C | class 0

Does growth inhibition meet or surpass 70% for O=[N+]([O-])c1cc[n+]([O-])c(Cl)c1 ?
class 1

Does growth inhibition meet or surpass 70% for O=C1C[C@H]2[C@H](c3ccc(Br)cc3)[C@H]3C(=O)c4ccccc4NC(=O)[C@@H]3[C@@]2(O)c2ccccc2N1 ?
class 0

Does growth inhibition meet or surpass 70% for COC(=O)C(Cl)(Cl)N=Nc1c(Cl)cc(Cl)c(C)c1Cl ?
class 0

Attribution: PubChem BioAssay (NCI)
